target: Glutamate NMDA receptor; Grin1/Grin2b (Rattus norvegicus, UniProt P35439+Q00960); assay: Inhibition of rat NMDA receptor NR1F/NR2B subunit expressed in Xenopus laevis oocytes after 2 days by two-electrode voltage-clamp electrophysiological assay
Sequence (Q00960 whole entry, other chains not shown): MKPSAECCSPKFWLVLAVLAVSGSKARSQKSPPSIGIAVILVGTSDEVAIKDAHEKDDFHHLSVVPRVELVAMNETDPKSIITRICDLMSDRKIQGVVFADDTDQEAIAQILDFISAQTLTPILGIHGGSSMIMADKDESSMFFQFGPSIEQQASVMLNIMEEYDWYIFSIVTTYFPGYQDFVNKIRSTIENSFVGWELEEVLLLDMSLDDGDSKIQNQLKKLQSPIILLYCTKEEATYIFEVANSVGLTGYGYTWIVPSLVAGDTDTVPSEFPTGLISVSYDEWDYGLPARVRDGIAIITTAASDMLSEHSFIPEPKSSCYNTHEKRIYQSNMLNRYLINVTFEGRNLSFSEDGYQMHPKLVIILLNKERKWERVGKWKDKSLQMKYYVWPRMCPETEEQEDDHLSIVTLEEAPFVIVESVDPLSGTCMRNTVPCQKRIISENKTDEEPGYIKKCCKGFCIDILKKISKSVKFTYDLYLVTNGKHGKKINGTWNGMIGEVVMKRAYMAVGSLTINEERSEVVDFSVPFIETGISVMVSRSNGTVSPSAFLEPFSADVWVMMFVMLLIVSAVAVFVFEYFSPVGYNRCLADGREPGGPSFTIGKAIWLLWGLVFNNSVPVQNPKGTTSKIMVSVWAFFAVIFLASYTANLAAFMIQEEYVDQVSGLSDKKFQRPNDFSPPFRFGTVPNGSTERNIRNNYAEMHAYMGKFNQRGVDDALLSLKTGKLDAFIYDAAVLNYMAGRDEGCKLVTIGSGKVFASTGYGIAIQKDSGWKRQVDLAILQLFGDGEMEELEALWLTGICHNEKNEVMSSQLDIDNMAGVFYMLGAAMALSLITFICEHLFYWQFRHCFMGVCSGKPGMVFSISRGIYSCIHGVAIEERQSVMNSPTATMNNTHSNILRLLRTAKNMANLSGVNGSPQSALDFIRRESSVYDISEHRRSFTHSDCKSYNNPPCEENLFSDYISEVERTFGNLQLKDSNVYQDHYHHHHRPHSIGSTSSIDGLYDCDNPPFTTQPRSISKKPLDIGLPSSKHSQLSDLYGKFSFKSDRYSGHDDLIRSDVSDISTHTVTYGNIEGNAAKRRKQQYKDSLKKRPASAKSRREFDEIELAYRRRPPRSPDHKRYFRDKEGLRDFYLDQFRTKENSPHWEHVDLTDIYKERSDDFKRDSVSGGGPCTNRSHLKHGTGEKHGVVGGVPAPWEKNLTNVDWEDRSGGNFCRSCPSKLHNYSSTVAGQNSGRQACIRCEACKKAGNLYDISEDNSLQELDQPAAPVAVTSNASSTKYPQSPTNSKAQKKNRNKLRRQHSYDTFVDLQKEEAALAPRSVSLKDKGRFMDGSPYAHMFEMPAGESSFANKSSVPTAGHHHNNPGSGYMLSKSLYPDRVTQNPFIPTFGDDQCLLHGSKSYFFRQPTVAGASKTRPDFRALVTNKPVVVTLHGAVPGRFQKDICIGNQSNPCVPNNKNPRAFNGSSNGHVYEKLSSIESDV

>  <chem smiles>
C[C@@H](CN1CCC(Cc2ccccc2)CC1)[C@@H](O)c1ccc(O)cc1

>  <IC50, nM>
17

$$$$

====

target: Glutamate receptor ionotropic, NMDA 2B (Rattus norvegicus, UniProt Q00960); test: Displacement of [3H]ifenprodil from NMDA receptor GluN2B subunit in Wistar rat cerebral cortex after 120 mins

>  <chem smiles>
CS(=O)(=O)Nc1ccc2c(C(=O)C(=O)N3CCC(Cc4ccccc4)CC3)c[nH]c2c1

>  <unit name>
µM

>  <IC50>
0.063

$$$$
>  <chem smiles>
CS(=O)(=O)Nc1ccc2[nH]cc(C(=O)CN3CCC(Cc4ccccc4)CC3)c2c1

>  <unit name>
µM

>  <IC50>
0.32

$$$$
>  <chem smiles>
Nc1ccc2[nH]cc(C(=O)CN3CCC(Cc4ccccc4)CC3)c2c1

>  <unit name>
µM

>  <IC50>
1.18

$$$$
>  <chem smiles>
CS(=O)(=O)Nc1ccc2c(C(=O)CN3CCC(Cc4ccccc4)CC3)c[nH]c2c1

>  <unit name>
µM

>  <IC50>
0.0089

$$$$
>  <chem smiles>
Nc1ccc2c(C(=O)CN3CCC(Cc4ccccc4)CC3)c[nH]c2c1

>  <unit name>
µM

>  <IC50>
2.27

$$$$

Origin of the recorded values: ChEMBL document CHEMBL2176878
